# Tested on: anesthetized rat
# test: in vivo
# Assay type: in vivo
# applied conditions: i.v.; compounds solubilized in 40% glyceril formal
Think of 50 nmols/kg as a floor: if Tolerability: Heart rate (-20%) stands on it or above, it is Met; beneath it, Not met.

Check if Tolerability: Heart rate (-20%) >= 50 nmols/kg (inclusive). Item: CSc1ccc([C@@H](O)[C@@H](CO)NC(C)COc2ccccc2)cc1 (stereo partly shown) [Z. 1408]
Met

Check if Tolerability: Heart rate (-20%) >= 50 nmols/kg (inclusive). Item: CSc1ccc([C@H](O)[C@H](CO)NC(C)COc2ccccc2)cc1 (stereo partly shown)
Not met

Check if Tolerability: Heart rate (-20%) >= 50 nmols/kg (inclusive). Item: CSc1ccc([C@H](O)[C@H](CO)NCCC(c2ccccc2)c2ccccc2)cc1
Not met

Check if Tolerability: Heart rate (-20%) >= 50 nmols/kg (inclusive). Item: COc1ccc(CCC(C)N[C@@H](CO)[C@@H](O)c2ccc(SC)cc2)cc1OC.Cl (relative stereo)
Not met

Check if Tolerability: Heart rate (-20%) >= 50 nmols/kg (inclusive). Item: CSc1ccc([C@@H](O)[C@@H](CO)NC(C)COc2ccccc2)cc1 (stereo partly shown) [Z. 1407]
Met

Check if Tolerability: Heart rate (-20%) >= 50 nmols/kg (inclusive). Item: CSc1ccc([C@H](O)[C@H](CO)NC(C)c2ccccc2)cc1 (stereo partly shown) [Z. 1414]
Met

Check if Tolerability: Heart rate (-20%) >= 50 nmols/kg (inclusive). Item: CSc1ccc([C@H](O)[C@H](CO)N2CCN(C(c3ccccc3)c3ccccc3)CC2)cc1
Not met

Check if Tolerability: Heart rate (-20%) >= 50 nmols/kg (inclusive). Item: CSc1ccc([C@H](O)[C@H](CO)NCC(C)c2ccccc2)cc1.Cl (stereo partly shown)
Met

Check if Tolerability: Heart rate (-20%) >= 50 nmols/kg (inclusive). Item: CSc1ccc([C@@H](O)[C@H](CO)NCCC(c2ccccc2)c2ccccc2)cc1
Not met

Check if Tolerability: Heart rate (-20%) >= 50 nmols/kg (inclusive). Item: CSc1ccc([C@H](O)[C@H](CO)NC(C)c2ccccc2)cc1 (relative stereo) [Z. 1413]
Met

Check if Tolerability: Heart rate (-20%) >= 50 nmols/kg (inclusive). Item: CC(Cc1ccccc1)NCCC(c1ccccc1)c1ccccc1 (stereo not shown) [Prenylamine, reference compound]
Not met

Check if Tolerability: Heart rate (-20%) >= 50 nmols/kg (inclusive). Item: CSc1ccc([C@H](O)[C@H](CO)NC(C)CCc2ccccc2)cc1.Cl (relative stereo)
Not met

---

# test: in vivo
# Assay type: in vivo
# applied conditions: rat, in vivo, iv, ratio between the dose inducing bradycardia 20 and the effective anti-anginal dose 50; read-out: Therapeutic index
# From the text: Furthermore, tolerability has been tested in the same experimental conditions in which it has been performed the pharmacological study in vivo. Tolerability has been referred as effective dose to reduce heart rate of 20%. Therapeutic index has been determined as ratio between the dose inducing bradycardia 20 and the effective anti-anginal dose 50.
Field: selectivity ratio. Provide a value for each of the molecules that follow.
Please respond with just the number, no unit label.

Any idea what its selectivity ratio is? The molecule is CC(Cc1ccccc1)NCCC(c1ccccc1)c1ccccc1 (stereo not shown) [Prenylamine, reference compound]
11

Any idea what its selectivity ratio is? The molecule is CSc1ccc([C@H](O)[C@H](CO)NCC(C)c2ccccc2)cc1.Cl (stereo partly shown) [Z. 1409, hydrochloride]
87

Any idea what its selectivity ratio is? The molecule is CSc1ccc([C@H](O)[C@H](CO)N2CCN(C(c3ccccc3)c3ccccc3)CC2)cc1
7

Any idea what its selectivity ratio is? The molecule is CSc1ccc([C@@H](O)[C@H](CO)NCCC(c2ccccc2)c2ccccc2)cc1
7

Any idea what its selectivity ratio is? The molecule is CSc1ccc([C@@H](O)[C@@H](CO)NC(C)COc2ccccc2)cc1 (stereo partly shown)
17

Any idea what its selectivity ratio is? The molecule is CSc1ccc([C@H](O)[C@H](CO)NCC(c2ccccc2)c2ccccc2)cc1
17

Any idea what its selectivity ratio is? The molecule is CSc1ccc([C@H](O)[C@H](CO)NCCC(c2ccccc2)c2ccccc2)cc1
20

Any idea what its selectivity ratio is? The molecule is CSc1ccc([C@H](O)[C@H](CO)NC(C)COc2ccccc2)cc1 (stereo partly shown)
9

Any idea what its selectivity ratio is? The molecule is COc1ccc(CCC(C)N[C@@H](CO)[C@@H](O)c2ccc(SC)cc2)cc1OC.Cl (relative stereo) [Z. 1434, hydrochloride]
93

Any idea what its selectivity ratio is? The molecule is CSc1ccc([C@H](O)[C@H](CO)NC(C)CCc2ccccc2)cc1.Cl (relative stereo) [Z. 1411, hydrochloride]
44
